tested on: HOP-18; assay: NCI tumour cell line growth inhibition, 48 h
Calls of active or inactive are those of the source. Cut-off read from the data, not from the text of the source: active = GI50 up to about 1.1 µM and inactive = higher.
Respond using exactly one of the listed classes: y = active, n = inactive

Q: Please state the recorded outcome for this molecule: C=C(C)[C@H]1CC[C@@]2(C)C(C1)[C@H](C)CC[C@@H]2O (stereo not given in full)
A: n

Q: Please state the recorded outcome for this molecule: Oc1cc(O)cc(/C=C/c2ccc(O)c(O)c2)c1 [PICEATANNOL]
A: n

Q: Please state the recorded outcome for this molecule: Cn1cnc([N+](=O)[O-])c1Sc1nc2ccccc2s1
A: y

Q: Please state the recorded outcome for this molecule: O=C(O)c1ccc(C2=Cc3cc(Cl)ccc3OC2)cc1
A: n

Q: Please state the recorded outcome for this molecule: CCOC(=O)c1nc2ccc([N+](=O)[O-])cc2c2c1CCO2
A: n

Q: Please state the recorded outcome for this molecule: C=CCNC1=NC(=O)C(CC(=O)Nc2ccc([N+](=O)[O-])cc2[N+](=O)[O-])S1 (stereo not given)
A: n

Q: Please state the recorded outcome for this molecule: COc1ccc(Oc2ccccc2N)cc1
A: n

Q: Please state the recorded outcome for this molecule: O=C(c1ccccc1)C1CCCCN1C(=O)c1ccccc1 (stereo not given)
A: n

Q: Please state the recorded outcome for this molecule: Nc1c(-c2ccc(Br)cc2)[n+]([O-])c2ccccc2[n+]1[O-]
A: n

Q: Please state the recorded outcome for this molecule: COC(=O)C1Cc2c([nH]c3ccccc23)C(c2ccccc2O)N1 (stereo not given)
A: n

Q: Please state the recorded outcome for this molecule: CC1=CC(=O)N2[C@H](OC[C@@H]2C(C)C)O1
A: n

Q: Please state the recorded outcome for this molecule: COc1cc(/C=C2\C(=O)N(C(=O)c3ccc(NC(C)=O)cc3)N=C2C)ccc1O
A: n

Q: Please state the recorded outcome for this molecule: CC(=O)NC1C(OCc2ccccc2)OC(COC(=O)CCCCCNc2ccc([N+](=O)[O-])c3[nH]c4ccc(O)cc4c(=O)c23)C(O)C1OC(C)C(=O)N[C@@H](C)C(=O)N[C@H](CCC(=O)OCc1ccccc1)C(N)=O (stereo not given in full)
A: n

Q: Please state the recorded outcome for this molecule: CN(C)CCOc1cccc2c1C(=O)c1ccccc1C2=O
A: n

Q: Please state the recorded outcome for this molecule: CC(C)(c1ccc(OC#N)cc1)c1ccc(OC#N)cc1
A: n

Q: Please state the recorded outcome for this molecule: Cc1nc2ccccc2c(=O)n1/N=C(\N=N\c1ccccc1Cl)c1ccccc1
A: n

Q: Please state the recorded outcome for this molecule: CCCCCCCCCCCCCC(=O)NO
A: n

Q: Please state the recorded outcome for this molecule: Nc1cc(-c2ccccc2)nn1-c1nsc2ccccc12
A: y

Q: Please state the recorded outcome for this molecule: NC1=NC(=O)/C(=C2\CCNC(=O)c3[nH]c(Br)cc32)N1 [HYMENIALDISINE]
A: n

Q: Please state the recorded outcome for this molecule: CC1CN1c1c(C(=O)/C=C/c2ccc(F)cc2)c(-c2ccccc2)nn(C)c1=O (stereo not given)
A: n
